# TGI values compiled below
Test system: MDA-MB-468 breast
Protocol description: NCI tumour cell line growth inhibition, 48 h
Where a SMILES comes first, the peptide text is derived from it. [ ]: non-standard residue; d: D form. The star is where a group is joined. Lauroyl = CCCCCCCCCCCC(=O)*; Aib = CC(C)(N)C(=O)O; βAla = NCCC(=O)O
Endpoint: TGI

INSERT INTO assay_data (compound, reading) VALUES
  ('CCOC(=O)C1=CN(C)C=C(C(=O)OCC)C1c1cc(Br)c(OCC)c(OC)c1', '> 100 µM'),
  ('COc1cccc(CC(C)=C(c2ccc(OCCN(C)C)cc2)c2ccc(OCCN(C)C)cc2)c1', '5.26 µM'),
  ('O=C(Nc1ccc(Nc2ccncc2)cc1)c1ccc([N+](=O)[O-])cc1', '5.2 µM'),
  ('CC(=O)Nc1ccc(S(=O)(=O)N2C(=O)CCC2C(=O)Nc2ccc(Br)cc2)cc1 (centres undefined)', '5.55 µM'),
  ('CC/C=C\C[C@H](O)C/C=C1/C(=O)C(Cl)=C[C@@H]1C/C=C\CCCC(=O)OC', '3.06 µM'),
  ('c1ccc(-c2nnc(-c3ccccn3)s2)nc1', '> 100 µM'),
  ('Cn1c(I)c(C#CCO[Si](C)(C)C(C)(C)C)c(=O)[nH]c1=O', '4.33 µM'),
  ('Cc1cc(C)c2c(n1)sc1c(Nc3ccc(Cl)cc3)ncnc12', '27 µM'),
  ('CCCCCCCCCCCC(=O)NC(C)(C)C(=O)N1CCCC1C(=O)NC(C)(C)C(=O)NC(C)(C)C(=O)N1CCCC1C(=O)NC(C)(C)C(=O)NC(C)(C)C(=O)N1CCCC1C(=O)NC(C)C(=O)NCCC(=O)NC(C)C(=O)NC(C)(C)C(=O)NC(C)(C)C(=O)NC(C)(C)C(=O)NCCC(=O)NC(C)(C)C(=O)NC(C)(C)C(=O)NC(C)(C)C(=O)NC(C)C(=O)NCCC(=O)O (centres undefined) (Lauroyl-[Aib]P[Aib][Aib]P[Aib][Aib]PA[βAla]A[Aib][Aib][Aib][βAla][Aib][Aib][Aib]A[βAla]-OH; configuration not given here)', '0.739 µM');

====

Tested on: MDA-MB-468 breast
Protocol description: NCI tumour cell line growth inhibition, 48 h; in the data active means GI50 below about 0.43 µM; inactive means the rest
Outcome codes: active, inactive

INSERT INTO measurements (molecule, assigned_class) VALUES
  ('COC(=O)c1ccc2c(c1)nc(NC(=O)c1ccccc1)n2CCCc1ccccc1', 'inactive'),
  ('COc1cccc(F)c1C(=O)c1cnc(NC2CCN(S(C)(=O)=O)CC2)nc1N', 'inactive'),
  ('CCN(CC)CCC(CNc1ccnc2cc(Cl)ccc12)c1ccc(Cl)cc1 (centres undefined)', 'active'),
  ('COc1cccc(CC(C)=C(c2ccc(OCCN(C)C)cc2)c2ccc(OCCN(C)C)cc2)c1', 'inactive'),
  ('C#CCOc1cccc(-c2ncc3cc(NC(=O)CCl)ccc3n2)c1', 'inactive'),
  ('c1ccc(-c2nnc(-c3ccccn3)s2)nc1', 'inactive'),
  ('COC(=O)C[C@](O)(CCCC(C)(C)O)C(=O)O[C@@H]1C(OC)=C[C@]23CCCN2CCc2cc4c(cc2[C@H]13)OCO4', 'active'),
  ('CCOC(=O)C1=CN(C)C=C(C(=O)OCC)C1c1cc(Br)c(OCC)c(OC)c1', 'inactive'),
  ('CCN1CCN(C(=O)[C@@]2(C)CC[C@]3(C)CC[C@]4(C)C(=CC(=O)[C@@H]5[C@@]6(C)CC[C@H](OC7C[C@@H](O)[C@@H](O)C(C)O7)C(C)(C)[C@@H]6CC[C@]54C)[C@@H]3C2)CC1 (some centres undefined)', 'inactive');

====

Tested on: SK-MEL-28 melanoma
Protocol description: NCI tumour cell line growth inhibition, 48 h
Endpoint: GI50

INSERT INTO assay_data (molecule, endpoint, reading) VALUES
  ('O=C(N/N=C/c1ccc(-c2cccc([N+](=O)[O-])c2)o1)c1[nH]c2ccc(Br)cc2c1-c1ccccc1', 'GI50', '6.75 µM'),
  ('O=C(c1ccc(Cl)cc1)C1[C@H](c2ccc(Br)cc2)[C@@H](c2ccccc2)NC12C(=O)Nc1ccccc12 (some centres undefined)', 'GI50', '7.53 µM'),
  ('COc1cc(NC(=O)c2cc(-c3ccc(F)cc3F)ccc2O)cc(OC)c1OC', 'GI50', '8.98 µM'),
  ('Cc1cc(C(NC(=O)CCCCCNc2cccc3c2C(=O)N(C2CCC(=O)CC2=O)C3=O)c2cccc(N(C)C)c2)c(O)c2ncccc12 (centres undefined)', 'GI50', '2.06 µM');

====

System: MDA-MB-468 breast
Protocol description: NCI tumour cell line growth inhibition, 48 h; in the data active = GI50 below about 0.43 µM; inactive = the rest
Where a SMILES comes first, the peptide text is derived from it. [ ]: non-standard residue; d: D form. The star is where a group is joined. Lauroyl = CCCCCCCCCCCC(=O)*; Aib = CC(C)(N)C(=O)O; βAla = NCCC(=O)O
Outcome codes: active, inactive

INSERT INTO assay_data (compound, assigned_class) VALUES
  ('O=C(c1ccc(Cl)cc1)C1[C@H](c2ccc(Br)cc2)[C@@H](c2ccccc2)NC12C(=O)Nc1ccccc12 (some centres undefined)', 'inactive'),
  ('CCCCCCCCCCCC(=O)NC(C)(C)C(=O)N1CCCC1C(=O)NC(C)(C)C(=O)NC(C)(C)C(=O)N1CCCC1C(=O)NC(C)(C)C(=O)NC(C)(C)C(=O)N1CCCC1C(=O)NC(C)C(=O)NCCC(=O)NC(C)C(=O)NC(C)(C)C(=O)NC(C)(C)C(=O)NC(C)(C)C(=O)NCCC(=O)NC(C)(C)C(=O)NC(C)(C)C(=O)NC(C)(C)C(=O)NC(C)C(=O)NCCC(=O)O (centres undefined) (Lauroyl-[Aib]P[Aib][Aib]P[Aib][Aib]PA[βAla]A[Aib][Aib][Aib][βAla][Aib][Aib][Aib]A[βAla]-OH; configuration not given here)', 'active'),
  ('COc1ccccc1/C=N\N/C(N)=N\N=C\c1ccccc1OC', 'inactive'),
  ('Cn1c(I)c(C#CCO[Si](C)(C)C(C)(C)C)c(=O)[nH]c1=O', 'inactive'),
  ('Nc1nn2cc(F)cnc2c1C(=O)Nc1cncc(F)c1N1CCC(C(=O)N2CCN(C3COC3)CC2)CC1', 'active'),
  ('CC/C=C\C[C@H](O)C/C=C1/C(=O)C(Cl)=C[C@@H]1C/C=C\CCCC(=O)OC', 'inactive'),
  ('Cc1cc(Cl)cc(OCCn2cc(F)cn2)c1-c1nc(N)nc2c1CN(C(=O)NCC(C)(F)F)C2', 'active'),
  ('Oc1ccc(Nc2ncnc3c2sc2ncccc23)cc1', 'active'),
  ('O=C(Nc1ccc(Nc2ccncc2)cc1)c1ccc([N+](=O)[O-])cc1', 'inactive');

====

System: MDA-MB-468 breast
Protocol description: NCI tumour cell line growth inhibition, 48 h
Endpoint: TGI (µM)

INSERT INTO results (molecule, unit_name, relational_operator, reading) VALUES
  ('Cc1cc(Cl)cc(OCCn2cc(F)cn2)c1-c1nc(N)nc2c1CN(C(=O)NCC(C)(F)F)C2', 'µM', '=', 3.13),
  ('COc1cc(Nc2ncccc2C(=O)NCc2cn(Cc3cccc(Oc4ccccc4)c3)nn2)cc(OC)c1', 'µM', '=', 7.01),
  ('Cn1cc(C2=C(c3ccc(N)cc3)C(=O)NC2=O)c2ccccc21', 'µM', '>', 25),
  ('Cc1cc(C(NC(=O)CCCCCNc2cccc3c2C(=O)N(C2CCC(=O)CC2=O)C3=O)c2cccc(N(C)C)c2)c(O)c2ncccc12 (configuration not stated)', 'µM', '=', 0.462),
  ('C[N+](C)(C)CC1CCCc2ccccc2C1=O (configuration not stated)', 'µM', '=', 3.76),
  ('Cc1ccc(SC2c3ccc(C)cc3Oc3nc(N)c(C#N)c(N)c32)cc1 (configuration not stated)', 'µM', '=', 3.74),
  ('C=C(C=O)[C@@H]1CC[C@]2(CO)CC[C@]3(C)[C@H](CC[C@@H]4[C@@]5(C)CCCNC(C)(C)[C@@H]5CC[C@]43C)[C@@H]12', 'µM', '=', 16.5),
  ('COc1ccc(Sc2[nH]c(C(C)=O)c3ccccc23)cc1', 'µM', '=', 41.4),
  ('O=C(N/N=C/c1ccc(-c2cccc([N+](=O)[O-])c2)o1)c1[nH]c2ccc(Br)cc2c1-c1ccccc1', 'µM', '=', 6),
  ('COc1ccccc1/C=N\N/C(N)=N\N=C\c1ccccc1OC', 'µM', '>', 45.7),
  ('COc1cccc(F)c1C(=O)c1cnc(NC2CCN(S(C)(=O)=O)CC2)nc1N', 'µM', '=', 9.91),
  ('N#Cc1c(NC(=O)NCc2ccccc2)sc2c1CCCCC2', 'µM', '=', 3.52);
